Measured values drawn from the supplement of paper PMC6755084 for this set.

# Test system: F1*sub RNA substrate (template-directed ligation)
# experimental-details: fraction ligated after 30 min (ligated reads / total reads); higher = more ligase activity; sequences stand for … in GAGACCGCAACTGAAAAGTTGT…AGTTCTGCACGTAGAAGCAAAAGGC
# condition-parameters: 42 °C
quantity-name: fraction ligated
Returns: the value as a bare number; no unit string appended.

query_sequence="TTCACTGCGTAAGACACTTTGGATGGGTTGA [3d338]" tested_on="F1*sub RNA substrate (template-directed ligation)" numeric_readout=0.782
query_sequence="TATCACTTTCGTGACACTTTGGATGGGTTGA [3d1506]" tested_on="F1*sub RNA substrate (template-directed ligation)" numeric_readout=0.813
query_sequence="TATCACTTGTCGAAGCACTTTGGAGGGTTGA [3d1931]" tested_on="F1*sub RNA substrate (template-directed ligation)" numeric_readout=0.108

### Prompt State, in one line, measured fraction ligated of TATCACTTCGTAAACACTTTGGATGGGTTGA [3d1315]
### Response 0.792

### Prompt Indicate its recorded fraction ligated; the sequence in question is ATCACTTGTCGAAGACATTTGGATGGGTTGA [3d190]
### Response 0.762

### Prompt Answer with the recorded fraction ligated of TTCACTTGTGTAAGACACTTTGATGGGTTGA [3d396] only.
### Response 0.122

### Prompt Indicate the recorded fraction ligated value for this sequence: TTCACTTGCGTAAGACATTTGGATGGGTTGA [3d379]
### Response 0.768

### Prompt Supply reported fraction ligated belonging to this sequence: TATCATTGTCGAAGACCTTTGGATGGGTTGA [3d1205]
### Response 0.768

### Prompt Return fraction ligated (reported value) for this sequence: TATCACTTCGTAAGACATTTGGATGGGTTGA [3d1319]
### Response 0.84

* * *

# System: F1*sub RNA substrate (template-directed ligation)
# experimental-details: fraction ligated after 30 min (ligated reads / total reads); higher = more ligase activity; sequences stand for … in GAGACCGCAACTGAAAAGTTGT…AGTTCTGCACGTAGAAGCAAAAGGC
# condition-parameters: 42 °C
quantity-name: fraction ligated

// below: answered sequences
query_sequence="TATCCTGTCGTAAGACACTTTGGATGGGTTGA [2d90]" result=0.788
query_sequence="TATCACTTGTGTAAGCACTTTGATGGGTTGA [3d1758]" result=0.811
query_sequence="TATCACTTGTCGTAAGACACTTGATGGGTTG [3d2243]" result=0.239
query_sequence="TATCCTTGTCGTAGACACTTTGGAGGGTTGA [3d1051]" result=0.00532
query_sequence="TACATTGTCGTAGACACTTTGGATGGGTTGA [3d553]" result=0.0879

### Prompt // fetch fraction ligated given entry TATCACTTTCGTAAGACATTTGATGGGTTGA [3d1555]
### Response 0.768

### Prompt Tell us which fraction ligated value is on record for TATCACTTGTCGTAACACTTTGATGGGTTGA [3d1997]
### Response 0.464

### Prompt Quote fraction ligated reported for TATACTTGTCGTAAGACACTTTGGGGGTTGA [3d938] please.
### Response 0.0526

* * *

Each item that follows carries a reported fraction ligated.
# Tested on: F1*sub RNA substrate (template-directed ligation)
# experimental-details: fraction ligated after 30 min (ligated reads / total reads); higher = more ligase activity; sequences stand for … in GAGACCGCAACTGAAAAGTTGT…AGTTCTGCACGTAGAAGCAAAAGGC
# condition-parameters: 42 °C
Kindly provide the number alone.

Previously resolved entries follow.
query_sequence="TATCACTTGTCGTAAGAATTTGGATGGTTGA [3d2156]" numeric_readout=0.208
query_sequence="TATCATTTCGTAAGACACTTTGGAGGGTTGA [3d1152]" numeric_readout=0.042
query_sequence="TATCACTTCTAAGACACTTTGGATGGGTTGA [3d1312]" numeric_readout=0.774

### Prompt Report fraction ligated for TATCACTGCGTAAGCACTTTGGATGGGTTGA [3d1332]
### Response 0.826

### Prompt Give fraction ligated for TATCACTGTCGTAAGACACTTTGGATGGTTA [3d1460]
### Response 0.272
